Method summary: Pharmacokinetics of oral omeprazole (40 mg) alone or with fresh grape juice in healthy male volunteers, plasma HPLC-UV, non-compartmental analysis
Type: in vivo, human
Condition description: male, human, plasma, po, 40 mg, omeprazole 40 mg oral alone with water; read-out: AUC0 t
Measured attribute: AUC (ng·h/mL)
Give your result in ng·h/mL as a bare value.

Q: Give a short answer stating reported AUC for COc1ccc2[nH]c([S+]([O-])Cc3ncc(C)c(OC)c3C)nc2c1 (stereo not shown) .
Result: 5840

###

Method summary: Pharmacokinetics of oral omeprazole (40 mg) alone or with fresh grape juice in healthy male volunteers, plasma HPLC-UV, non-compartmental analysis
Format: in vivo, human
Condition description: male, human, plasma, oral, 40 mg, omeprazole 40 mg with water; read-out: AUC0 ∞
Procedure: The open-label and randomized study design was used to conduct the study in normal, healthy male volunteers. All volunteers were directed not to take any type of medication, including herbal medicines, for 2 weeks prior to clinical trials. […] The samples were analyzed using a validated HPLC/UV-Vis chromatographic method developed for plasma sample analysis. […] The terminal half-life was calculated using the equation 0.693/kel, where kel represents the value of the elimination rate constant. […]
Measured attribute: AUC (ng·h/mL)
Reply with just the number (in ng·h/mL).

Q: Give AUC for the following compound: COc1ccc2[nH]c([S+]([O-])Cc3ncc(C)c(OC)c3C)nc2c1 (stereo not shown)
Result: 6000

###

Method summary: Pharmacokinetics of oral omeprazole (40 mg) alone or with fresh grape juice in healthy male volunteers, plasma HPLC-UV, non-compartmental analysis
Format: in vivo, human
Condition description: male, human, plasma, po, 40 mg, omeprazole 40 mg oral with fresh grape juice; mean; read-out: AUC0∞
Description: The open-label and randomized study design was used to conduct the study in normal, healthy male volunteers. All volunteers were directed not to take any type of medication, including herbal medicines, for 2 weeks prior to clinical trials. […] The samples were analyzed using a validated HPLC/UV-Vis chromatographic method developed for plasma sample analysis. […] The terminal half-life was calculated using the equation 0.693/kel, where kel represents the value of the elimination rate constant. […]
Measured attribute: AUC (ng·h/mL)
The response must be a number in ng·h/mL with no trailing unit.

Q: Fill in AUC for record COc1ccc2[nH]c([S+]([O-])Cc3ncc(C)c(OC)c3C)nc2c1 (stereo not shown) [Omeprazole]
Result: 2910

###

Method summary: Pharmacokinetics of oral omeprazole (40 mg) alone or with fresh grape juice in healthy male volunteers, plasma HPLC-UV, non-compartmental analysis
Format: in vivo, human
Condition description: male, human, plasma, po, 40 mg, omeprazole 40 mg oral with 250 mL fresh grape juice after prior juice intake; mean
Measured attribute: Cmax (ng/mL)
Output spec: scalar in ng/mL, unitless text.

Q: Determine its reported Cmax: COc1ccc2[nH]c([S+]([O-])Cc3ncc(C)c(OC)c3C)nc2c1 (stereo not shown) [Omeprazole]
Result: 1020

###

Method summary: Pharmacokinetics of oral omeprazole (40 mg) alone or with fresh grape juice in healthy male volunteers, plasma HPLC-UV, non-compartmental analysis
Assay type: in vivo, human
Condition description: male, human, plasma; omeprazole 40 mg oral with fresh grape juice; mean; read-out: Tmax
Measured attribute: Tmax
Give the number first and the unit second.

Q: Answer with the recorded Tmax for the molecule listed here: COc1ccc2[nH]c([S+]([O-])Cc3ncc(C)c(OC)c3C)nc2c1 (stereo not shown)
Result: 2.09 h

###

Method summary: Pharmacokinetics of oral omeprazole (40 mg) alone or with fresh grape juice in healthy male volunteers, plasma HPLC-UV, non-compartmental analysis
Type: in vivo, human
Condition description: male, human, plasma, po, 40 mg, omeprazole 40 mg oral alone with water; mean; read-out: AUC0∞
Measured attribute: AUC
Note: state the figure and append the unit.

Q: Return AUC for the following compound: COc1ccc2[nH]c([S+]([O-])Cc3ncc(C)c(OC)c3C)nc2c1 (stereo not shown)
Result: 6000 ng·h/mL

###

Method summary: Pharmacokinetics of oral omeprazole (40 mg) alone or with fresh grape juice in healthy male volunteers, plasma HPLC-UV, non-compartmental analysis
Type: in vivo, human
Condition description: male, human, plasma, po, 40 mg, omeprazole 40 mg oral alone with water; mean; read-out: AUC0t
Procedure: The open-label and randomized study design was used to conduct the study in normal, healthy male volunteers. All volunteers were directed not to take any type of medication, including herbal medicines, for 2 weeks prior to clinical trials. […] The samples were analyzed using a validated HPLC/UV-Vis chromatographic method developed for plasma sample analysis. […] The terminal half-life was calculated using the equation 0.693/kel, where kel represents the value of the elimination rate constant. […]
Measured attribute: AUC (ng·h/mL)
Report the value in ng·h/mL with no unit label.

Q: Input COc1ccc2[nH]c([S+]([O-])Cc3ncc(C)c(OC)c3C)nc2c1 (stereo not shown) [Omeprazole] , output reported AUC.
Result: 5840

###

Method summary: Pharmacokinetics of oral omeprazole (40 mg) alone or with fresh grape juice in healthy male volunteers, plasma HPLC-UV, non-compartmental analysis
Type: in vivo, human
Condition description: male, human, plasma, oral; omeprazole 40 mg co-administered with fresh grape juice; read-out: mean time to reach the maximum plasma concentration (converted)
Measured attribute: Tmax
Note: state the figure and append the unit.

Q: Using known records, supply Tmax for COc1ccc2[nH]c([S+]([O-])Cc3ncc(C)c(OC)c3C)nc2c1 (stereo not shown)
Result: 2.09 h

###

Method summary: Pharmacokinetics of oral omeprazole (40 mg) alone or with fresh grape juice in healthy male volunteers, plasma HPLC-UV, non-compartmental analysis
Assay type: in vivo, human
Condition description: male, human, plasma, po, 40 mg, omeprazole 40 mg oral alone with water; mean
Measured attribute: Cmax
Write your answer as a measured quantity: the number, then the unit.

Q: Look up and state reported Cmax for COc1ccc2[nH]c([S+]([O-])Cc3ncc(C)c(OC)c3C)nc2c1 (stereo not shown)
Result: 1950 ng/mL
